Molecular target: purified human Factor XIa (Homo sapiens (Human), UniProt P03951)
Sequence (P03951 388-625): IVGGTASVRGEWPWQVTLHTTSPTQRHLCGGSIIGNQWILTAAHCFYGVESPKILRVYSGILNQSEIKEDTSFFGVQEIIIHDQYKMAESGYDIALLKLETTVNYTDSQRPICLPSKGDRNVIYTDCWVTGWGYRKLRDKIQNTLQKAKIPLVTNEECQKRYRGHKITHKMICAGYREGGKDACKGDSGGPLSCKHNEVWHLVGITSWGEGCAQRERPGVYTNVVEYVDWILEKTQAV
Sequence (P03951 19-387 partner): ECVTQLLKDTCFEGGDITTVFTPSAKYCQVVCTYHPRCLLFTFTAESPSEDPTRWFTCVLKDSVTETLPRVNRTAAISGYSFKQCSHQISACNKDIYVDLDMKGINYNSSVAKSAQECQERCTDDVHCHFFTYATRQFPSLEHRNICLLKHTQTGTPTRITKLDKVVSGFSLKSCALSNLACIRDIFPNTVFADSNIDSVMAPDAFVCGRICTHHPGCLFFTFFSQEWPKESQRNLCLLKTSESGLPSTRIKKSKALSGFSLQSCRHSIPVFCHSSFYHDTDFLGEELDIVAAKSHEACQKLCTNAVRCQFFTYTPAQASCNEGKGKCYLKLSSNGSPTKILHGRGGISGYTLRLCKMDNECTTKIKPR
Assay: Factor XIa enzyme inhibition assay (chromogenic substrate S-2366)
Conditions: read-out: Factor XIa Ki; measured at 25° C.
Structures can show the parent of a compound that is named as a salt.
Each entry below lists one item and its recorded Ki value.
RESULT_TYPE: Ki (nM)

COMPOUND	ASSAY_SYSTEM	RESULT_TYPE	RELATION_QUALIFIER	RECORDED_MEASUREMENT
COC1CCN(c2cccc3c2CCN(C(=O)C2CC(=O)N(c4c(F)ccc(Cl)c4F)C2)C3C(=O)Nc2ccc(C(=O)O)cc2)CC1 (stereo not drawn) [Example 71, TFA salt]	purified human Factor XIa (Homo sapiens (Human), UniProt P03951)	Ki	=	913
Nc1ccc(-c2cccc3c2CCN(C(=O)c2cn(-c4cccc(Cl)c4F)nn2)C3C(=O)Nc2ccc(C(=O)O)cc2)cn1 (stereo not drawn) [Example 39, bis-TFA salt]	purified human Factor XIa (Homo sapiens (Human), UniProt P03951)	Ki	<	5
COC1CCN(c2cccc3c2CCN(C(=O)c2cn(-c4cccc(Cl)c4F)nn2)C3C(=O)Nc2ccc3c(c2)CC(=O)N3)CC1 (stereo not drawn) [Example 190, TFA salt]	purified human Factor XIa (Homo sapiens (Human), UniProt P03951)	Ki	=	98.1

---

Target: purified human plasma kallikrein (Homo sapiens (Human), UniProt P03952)
Sequence (P03952 391-638): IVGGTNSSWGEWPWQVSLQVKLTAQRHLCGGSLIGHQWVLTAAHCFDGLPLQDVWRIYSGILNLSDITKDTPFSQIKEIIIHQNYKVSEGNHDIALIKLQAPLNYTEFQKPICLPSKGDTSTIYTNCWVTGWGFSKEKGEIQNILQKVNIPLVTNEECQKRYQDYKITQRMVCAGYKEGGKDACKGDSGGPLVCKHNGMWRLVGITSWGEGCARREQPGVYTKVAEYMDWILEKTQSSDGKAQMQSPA
Sequence (P03952 20-390 partner): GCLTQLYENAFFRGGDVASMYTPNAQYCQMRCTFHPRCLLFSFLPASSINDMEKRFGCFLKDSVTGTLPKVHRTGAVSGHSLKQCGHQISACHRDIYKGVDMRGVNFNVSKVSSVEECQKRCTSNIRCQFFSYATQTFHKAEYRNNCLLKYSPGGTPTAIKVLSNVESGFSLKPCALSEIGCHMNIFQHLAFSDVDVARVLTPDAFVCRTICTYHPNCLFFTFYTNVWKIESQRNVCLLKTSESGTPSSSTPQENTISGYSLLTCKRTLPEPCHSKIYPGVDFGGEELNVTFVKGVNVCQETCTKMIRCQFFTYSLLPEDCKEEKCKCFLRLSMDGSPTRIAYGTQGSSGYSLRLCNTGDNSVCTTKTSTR
Assay: Plasma kallikrein enzyme inhibition assay (chromogenic substrate S-2302)
Assay type: biochemical
Conditions: measured at 37° C. (*)
Where a name gives a salt, the structure may show the parent alone.

COMPOUND	UNITS_OF_MEASURE	RELATION_QUALIFIER	Ki
COC1CCN(c2cccc3c2CCN(C(=O)[C@H]2CC(c4cccc(Cl)c4F)=NO2)[C@@H]3C(=O)Nc2cccnc2)CC1 (single isomer, unassigned) [Example 241, TFA salt]	nM	=	66.7
COC(=O)c1ccc(NC(=O)[C@H]2c3cccc(-c4cncnc4)c3CCN2C(=O)c2cn(-c3cccc(Cl)c3F)nn2)cc1	nM	>	4340
COC1CCN(c2cccc3c2CCN(C(=O)C2CC(=O)N(c4c(F)ccc(Cl)c4F)C2)C3C(=O)Nc2ccc(C(=O)O)cc2)CC1 (stereo not drawn) [Example 71, TFA salt]	nM	>	6000
COC1CCN(c2cccc3c2CCN(C(=O)c2cc(C)n(-c4ccc(Cl)cc4)c2C)C3C(=O)Nc2ccc(C(=O)O)cc2)CC1 (stereo not drawn) [Example 147, TFA salt]	nM	>	6000
O=C(O)c1ccc(NC(=O)[C@@H]2c3cccc(-c4cncc(F)c4)c3CCN2C(=O)[C@H]2CC(c3cccc(Cl)c3F)=NO2)cc1 [Example 21, TFA salt]	nM	=	9.6
O=C(Nc1ccc(-c2ncc[nH]2)cc1)C1c2cccc(-c3cncnc3)c2CCN1C(=O)c1cn(-c2cccc(Cl)c2F)nn1 (stereo not drawn) [Example 126, TFA salt]	nM	=	94

---

Molecular target: purified human Factor XIa (Homo sapiens (Human), UniProt P03951)
Assay: Factor XIa enzyme inhibition assay (chromogenic substrate S-2366)
Details: read-out: Factor XIa Ki; measured at 25° C.
Counter-ions that a name gives are not always drawn.

COMPOUND	Ki, µM
CN1CCN(c2cccc3c2CCN(C(=O)c2cn(-c4cccc(Cl)c4F)nn2)[C@H]3C(=O)Nc2ccc(C(=O)O)cc2)C(=O)C1 [Example 79, TFA salt]	0.114
O=C(Nc1ccccc1)C1c2cccc(Br)c2CCN1C(=O)c1cn(-c2cccc(Cl)c2F)nn1 (stereo not drawn) [Example 119]	4.44
O=C(O)c1ccc(NC(=O)C2c3cccc(N4CCOCC4=O)c3CCN2C(=O)[C@H]2CC(c3cccc(Cl)c3F)=NO2)cc1 (stereo in doubt) [Example 290]	0.0134

---

Each entry below lists one item and its recorded Ki value.
Biological target: UniProt P03951
Assay: Factor XIa enzyme inhibition assay (chromogenic substrate S-2366)
Details: read-out: Factor XIa Ki; measured at 25° C.
Structures can show the parent of a compound that is named as a salt.

COMPOUND	ASSAY_SYSTEM	Ki
CN(C)C1CCN(c2cccc3c2CCN(C(=O)c2cnn(-c4cccc(Cl)c4F)c2)C3C(=O)Nc2ccc(C(=O)O)cc2)CC1 (centres unmarked) [Example 50, bis-TFA salt]	UniProt P03951	< 5 nM
CNC(=O)c1ccc(-c2cccc3c2CCN(C(=O)c2cn(-c4cccc(Cl)c4F)nn2)[C@H]3C(=O)Nc2ccc(C(=O)O)cc2)cn1 [Example 45, TFA salt]	UniProt P03951	20.6 nM
CN(C)C(=O)C1CCN(c2cccc3c2CCN(C(=O)C2CC(c4cccc(Cl)c4F)=NO2)C3C(=O)Nc2ccc(C(=O)O)cc2)CC1 (single isomer, unassigned) [Example 279, TFA salt]	UniProt P03951	< 5 nM
CNC(=O)c1ccc(-c2cccc3c2CCN(C(=O)c2cn(-c4cccc(Cl)c4F)nn2)[C@@H]3C(=O)Nc2ccc(C(=O)OC)cc2)cn1 [Example 27, TFA salt]	UniProt P03951	< 5 nM
Cc1ncn(-c2cccc3c2CCN(C(=O)[C@H]2CC(c4cccc(Cl)c4F)=NO2)[C@@H]3C(=O)Nc2ccc(C(=O)O)cc2)n1 [Example 250, TFA salt]	UniProt P03951	< 5 nM

---

Biological target: purified human Factor XIa (Homo sapiens (Human))
Assay: Factor XIa enzyme inhibition assay (chromogenic substrate S-2366)
Settings: read-out: Factor XIa Ki; measured at 25° C.
Structures can show the parent of a compound that is named as a salt.

COMPOUND	ASSAY_SYSTEM	RELATION_QUALIFIER	Ki [nM]
CN1CCC(NC(=O)c2cccc3c2CCN(C(=O)c2cn(-c4cccc(Cl)c4F)nn2)C3C(=O)Nc2ccc(C(=O)O)cc2)CC1 (stereo not drawn) [Example 192, TFA salt]	purified human Factor XIa (Homo sapiens (Human))	=	9.97
CC(=O)Nc1cccc2c1CCN(C(=O)c1cn(-c3cccc(Cl)c3F)nn1)C2C(=O)Nc1ccc(C(=O)O)cc1 (stereo not drawn)	purified human Factor XIa (Homo sapiens (Human))	=	13.4
O=C(O)c1ccc(NC(=O)C2c3cccc(N4CCC(N5CCCC5=O)CC4)c3CCN2C(=O)c2cn(-c3cccc(Cl)c3F)nn2)cc1 (stereo not drawn) [Example 72, TFA salt]	purified human Factor XIa (Homo sapiens (Human))	<	5

---

Biological target: purified human plasma kallikrein (Homo sapiens (Human), UniProt P03952)
Experiment: Plasma kallikrein enzyme inhibition assay (chromogenic substrate S-2302)
Type: biochemical
Details: measured at 25° C. (no asterisk)
Structures can show the parent of a compound that is named as a salt.
Each entry below lists one item and its recorded Ki value.

MOLECULE	Ki (nM)
CNC(=O)c1cncc(-c2cccc3c2CCN(C(=O)c2cn(-c4cccc(Cl)c4F)nn2)C3C(=O)Nc2ccc(C(=O)O)cc2)c1 (stereo not drawn) [Example 37, TFA salt]	12.9
CN(C)CCNC(=O)c1ccc(-c2cccc3c2CCN(C(=O)c2cn(-c4cccc(Cl)c4F)nn2)[C@@H]3C(=O)Nc2ccc(C(=O)O)cc2)cc1 [Example 10, TFA salt]	1.08
Cn1cc2ccc(-c3cccc4c3CCN(C(=O)c3cn(-c5cccc(Cl)c5F)nn3)C4C(=O)Nc3ccc(C(=O)O)cc3)cc2n1 (stereo not drawn) [Example 162]	49.9

---

Each entry below lists one item and its recorded Ki value.
Target: purified human plasma kallikrein (Homo sapiens (Human))
Experiment: Plasma kallikrein enzyme inhibition assay (chromogenic substrate S-2302)
Assay type: biochemical
Settings: measured at 25° C. (no asterisk)
Where a name gives a salt, the structure may show the parent alone.
RESULT_TYPE: Ki (nM)

COMPOUND	RESULT_TYPE	RECORDED_MEASUREMENT
O=C(O)c1ccc(NC(=O)C2c3cccc(-c4cncnc4)c3CCN2C(=O)c2cn(-c3cccc(Cl)c3F)nn2)cc1 (stereo not drawn)	Ki	9.88
C=C(C)c1cccc2c1CCN(C(=O)c1cn(-c3cccc(Cl)c3F)nn1)C2C(=O)Nc1ccc(C(=O)O)cc1 (stereo not drawn)	Ki	61.3
COC1CCN(c2cccc3c2CCN(C(=O)c2cn(-c4cccc(Cl)c4F)nn2)[C@@H]3C(=O)Nc2ccc(C(=O)O)cc2)CC1 [Example 314, TFA salt]	Ki	10.3

---

Biological target: purified human Factor XIa (Homo sapiens (Human), UniProt P03951)
Experiment: Factor XIa enzyme inhibition assay (chromogenic substrate S-2366)
Conditions: read-out: Factor XIa Ki; measured at 25° C.; TFA salt
Where a name gives a salt, the structure may show the parent alone.
Each entry below lists one item and its recorded log10 of Ki value.
RESULT_TYPE: log10 of Ki (log10 of the value in nM)

MOLECULE	log10 of Ki
COC1CCN(c2cccc3c2CCN(C(=O)C2CCN(c4cccc(Cl)c4)C2)C3C(=O)Nc2ccc(C(=O)O)cc2)CC1 (centres unmarked) [Example 261, TFA salt]	2.98
COC1CCN(c2cccc3c2CCN(C(=O)C2(C)CC(c4cccc(Cl)c4F)=NO2)C3C(=O)Nc2ccc(C(=O)O)cc2)CC1 (centres unmarked) [Example 266, TFA salt]	2.62
CN1CCN(c2cccc3c2CCN(C(=O)C2CC(c4cccc(Cl)c4F)=NO2)C3C(=O)Nc2ccc(C(=O)O)cc2)CC1=O (single isomer, unassigned) [Example 280, TFA salt]	1.56
COC1CCN(c2cccc3c2CCN(C(=O)C2CC(=O)N(c4cccc(Cl)c4F)C2)C3C(=O)Nc2ccc(C(=O)O)cc2)CC1 (centres unmarked) [Example 260, TFA salt]	3.39
COC1CCN(c2cccc3c2CCN(C(=O)C2CCN(c4cccc(Cl)c4F)C2)C3C(=O)Nc2ccc(C(=O)O)cc2)CC1 (centres unmarked) [Example 307, TFA salt]	2.22
COC1CCN(c2cccc3c2CCN(C(=O)C2CC(=O)N(c4cccc(Cl)c4F)C2)C3C(=O)Nc2ccc(C(=O)O)cc2)CC1 (centres unmarked) [Example 255, TFA salt]	0.85
COC1CCN(c2cccc3c2CCN(C(=O)C2CC(c4c(F)ccc(Cl)c4F)=NO2)C3C(=O)Nc2ccc(C(=O)O)cc2)CC1 (centres unmarked) [Example 256, TFA salt]	1.10
CN1CCN(c2cccc3c2CCN(C(=O)C2CC(c4cccc(Cl)c4F)=NO2)C3C(=O)Nc2ccc(C(=O)O)cc2)CC1=O (single isomer, unassigned) [Example 283, TFA salt]	0.92
